Just for reference, paper PMC6522524 is where these values come from.

Experiment: in vitro
Type: cell-based, human
Details: human, Cell viability(%), AVERAGE
reported endpoint: viability at 5 µM (%)
Numbers only; they are read as %.

May I ask what viability at 5 µM has been recorded for `Cc1cc(C2CCCCC2)n(O)c(=O)c1` ? 96.5

====

Experiment: in vitro
Assay type: cell-based, human
Conditions: human, Cell viability(%), individual samples
reported endpoint: viability at 1 µM (%)
Numbers only; they are read as %.

May I ask what viability at 1 µM has been recorded for `Cc1cc(C2CCCCC2)n(O)c(=O)c1` ? 98.9

====

Experiment: in vitro
Type: cell-based, human
Settings: human, Cell viability(%), AVERAGE
reported endpoint: viability at 1 µM (%)
Numbers only; they are read as %.

May I ask what viability at 1 µM has been recorded for `Cc1cc(C2CCCCC2)n(O)c(=O)c1` ? 99.1

====

Test: in vitro
Conditions: human, Cell viability(%), individual samples
reported endpoint: viability at 1 µM (%)
Numbers only; they are read as %.

May I ask what viability at 1 µM has been recorded for `Cc1cc(C2CCCCC2)n(O)c(=O)c1` ? 99.9

====

Assay: in vitro
Format: cell-based, human
Settings: human, Cell viability(%), individual samples
reported endpoint: viability at 2 µM (%)
Numbers only; they are read as %.

May I ask what viability at 2 µM has been recorded for `Cc1cc(C2CCCCC2)n(O)c(=O)c1` ? 97

====

Assay: in vitro
Conditions: human, Cell viability(%), AVERAGE, HepG2.2.15, 10 μM, 6 days
reported endpoint: viability at 10 µM

May I ask what viability at 10 µM has been recorded for `C=C1[C@H](CO)[C@@H](O)C[C@@H]1n1cnc2c(=O)[nH]c(N)nc21` ? 101%

====

Test: in vitro
Conditions: human, Cell viability(%), individual samples, HBV 1.2x adr, 10 μM, 6 days, Sample1-3
reported endpoint: viability at 10 µM (%)
Numbers only; they are read as %.

May I ask what viability at 10 µM has been recorded for C=C1[C@H](CO)[C@@H](O)C[C@@H]1n1cnc2c(=O)[nH]c(N)nc21 [ETV, entecavir] ? 99.3

====

Test: in vitro
Conditions: human, Cell viability(%), individual samples
reported endpoint: viability at 0.2 µM (%)
Numbers only; they are read as %.

May I ask what viability at 0.2 µM has been recorded for Cc1cc(C2CCCCC2)n(O)c(=O)c1 [Ciclopirox] ? 95.7

====

Assay: in vitro
Settings: human, Cell viability(%), individual samples, HepG2.2.15, 10 μM, 6 days, Sample1-3
reported endpoint: viability at 10 µM
Express your answer as a number followed by its unit.

May I ask what viability at 10 µM has been recorded for `C=C1[C@H](CO)[C@@H](O)C[C@@H]1n1cnc2c(=O)[nH]c(N)nc21` ? 101%

====

Assay: in vitro
Conditions: human, Cell viability(%), AVERAGE
reported endpoint: viability at 0.1 µM (%)
Numbers only; they are read as %.

May I ask what viability at 0.1 µM has been recorded for Cc1cc(C2CCCCC2)n(O)c(=O)c1 [Ciclopirox] ? 99.9

====

Test: in vitro
Type: cell-based, human
Conditions: human, Cell viability(%), AVERAGE
reported endpoint: viability at 0.2 µM (%)
Numbers only; they are read as %.

May I ask what viability at 0.2 µM has been recorded for `Cc1cc(C2CCCCC2)n(O)c(=O)c1` ? 100
